target-under-test: mpox resolvase (Mpr) (Monkeypox virus)
Sequence (A0A7H0DNC1 whole entry, looked up): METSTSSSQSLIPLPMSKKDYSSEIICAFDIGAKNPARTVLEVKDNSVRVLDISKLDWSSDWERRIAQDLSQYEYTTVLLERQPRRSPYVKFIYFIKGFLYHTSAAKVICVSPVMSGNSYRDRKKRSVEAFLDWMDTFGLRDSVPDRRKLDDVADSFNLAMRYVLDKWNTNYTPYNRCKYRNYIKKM
assay-details: biochemical
Assay type: biochemical
pIC50: −log10 of the molar value.
Cut-off 6 on pIC50, inclusive. At or above means 1 (yes); below means 0 (no).

1) O=c1cc(O)c2cc(-c3cccc(-c4ccccc4)c3)cnc2n1O; 1 (yes)
2) O=c1cc(O)c2c(-c3cccc(-c4ccccc4)c3)ccnc2n1O; 1 (yes)
3) CCc1c(O)c2cc(-c3ccc(C(F)(F)F)cc3)cnc2n(O)c1=O; 0 (no)
4) O=c1c(-c2ccccc2)c(O)c2cc(Br)cnc2n1O; 0 (no)

----------
target-under-test: mpox resolvase (Mpr) (Monkeypox virus)
assay-details: biochemical
Format: biochemical
endpoint-label: IC50

1. CCc1c(O)c2cc(-c3cc(OC)ccc3OC)cnc2n(O)c1=O [4b-9]; 1500 nM
2. CCc1c(O)c2cc(-c3ccc(SC)cc3)cnc2n(O)c1=O [4b-8]; 700 nM
3. O=c1c(-c2ccccc2)c(O)c2cc(-c3ccsc3)cnc2n1O [4a-11]; 1300 nM
4. O=c1c(-c2ccccc2)c(O)c2cc(-c3ccc4c(c3)OCO4)cnc2n1O [4a-19]; 1100 nM
